# systemUnderTest: human GLP-1 receptor (human, UniProt P43220 24-463)
# procedureDetails: cell-based or functional assay
propertyLabel: cAMP EC50, HEK-293 cells stably overexpressing human GLP-1 R (nM)
Number in nM, nothing else.

Reported cAMP EC50, HEK-293 cells stably overexpressing human GLP-1 R for YXQGTXTSDYSIXLDKKAQXAFIEFLLESHPSSXHPPXS (Aib at 2; αMeF(2F) at 6; αMeL at 13; Lys 17 side chain AEEAc-AEEAc-γGlu-CO(CH2)18COOH; Aib at 20; Aib at 34; Ac3c at 38; C-terminal amide (NH2)) [Compound 40] : what is it? 0.016

Now give it for YXQGTXTSDYSILLDKKAQXAFIEFLLESHPSSXHPPXS (Aib at 2; αMeF at 6; Lys 17 side chain AEEAc-AEEAc-γGlu-CO(CH2)18COOH; Aib at 20; Aib at 34; Ac3c at 38; C-terminal amide (NH2)) [Compound 42] too. 0.009

Now give it for YXQGTXTSDYSIXLDKKAQXAFIEYLLESHPSSXHPPXS (Aib at 2; αMeF(2F) at 6; αMeL at 13; Lys 17 side chain AEEAc-AEEAc-γGlu-CO(CH2)18COOH; Aib at 20; Aib at 34; Ac3c at 38; C-terminal amide (NH2)) [Compound 43] too. 0.01

Now give it for YXQGTXTSDYSIXLDKKAQXAFIEFLLESHPSSGAPPPS (Aib at 2; αMeF at 6; αMeL at 13; Lys 17 side chain AEEAc-AEEAc-γGlu-CO(CH2)18COOH; Aib at 20; C-terminal amide (NH2)) [Compound 26] too. 0.022

Now give it for YXQGTXTSDYSIXLDKKAQXAFIEFLLETGPSSGAPPPS (Aib at 2; αMeF at 6; αMeL at 13; Lys 17 side chain AEEAc-AEEAc-γGlu-CO(CH2)18COOH; Aib at 20; C-terminal amide (NH2)) [Compound 14] too. 0.01

Now give it for YXQGTXTSDYSIXLDKKAQXAFIEFLLETXPSSGAPPXS (Aib at 2; αMeF at 6; αMeL at 13; Lys 17 side chain AEEAc-AEEAc-γGlu-CO(CH2)18COOH; Aib at 20; Aib at 30; Ac3c at 38; C-terminal amide (NH2)) [Compound 30] too. 0.02

Now give it for YXQGTXTSDYSIXLDKKAQXAFIEYLLETGPSSGXPPPS (Aib at 2; αMeF at 6; αMeL at 13; Lys 17 side chain AEEAc-AEEAc-γGlu-CO(CH2)18COOH; Aib at 20; Aib at 35; C-terminal amide (NH2)) [Compound 7] too. 0.01

Now give it for YXHGTXTSDYSIXLDKKAQXAFIEYLLEXHPSSGQPPPS (Aib at 2; αMeF(2F) at 6; αMeL at 13; Lys 17 side chain AEEAc-AEEAc-γGlu-CO(CH2)18COOH; Aib at 20; Aib at 29; C-terminal amide (NH2)) [Compound 6] too. 0.02

Now give it for YXQGTXTSDYSIXLDKKAQXAFIEYLLETHPSSGAPPXS (Aib at 2; αMeF at 6; αMeL at 13; Lys 17 side chain AEEAc-AEEAc-γGlu-CO(CH2)18COOH; Aib at 20; Ac3c at 38; C-terminal amide (NH2)) [Compound 2] too. 0.026

Now give it for YXQGTXTSDYSIFLDKKAQXAFIEFLLESHPSSGAPPXS (Aib at 2; αMeF(2F) at 6; Lys 17 side chain AEEAc-AEEAc-γGlu-CO(CH2)18COOH; Aib at 20; Ac3c at 38; C-terminal amide (NH2)) [Compound 10] too. 0.047

Now give it for YXQGTXTSDYSIXLDKKAQXAFIEFLLEGGPSSXHPPPS (Aib at 2; αMeF at 6; αMeL at 13; Lys 17 side chain AEEAc-AEEAc-γGlu-CO(CH2)18COOH; Aib at 20; Aib at 34; C-terminal amide (NH2)) [Compound 36] too. 0.025

Now give it for YXQGTXTSDYSILLDKKAQXAFIEFLLESHPSSXHPPXS (Aib at 2; αMeF(2F) at 6; Lys 17 side chain AEEAc-AEEAc-γGlu-CO(CH2)18COOH; Aib at 20; Aib at 34; Ac3c at 38; C-terminal amide (NH2)) [Compound 41] too. 0.012
